System: AECO001 (ATCC25922)
experimental-protocol: MIC broth microdilution, AECO001
Type: cell-based, E. coli
cond: Escherichia coli, ATCC25922, read-out: MIC AECO001
List of MIC values.
parameter: MIC

>>> result("O=C(NO)[C@@H](Cc1ccccc1)NS(=O)(=O)c1ccc(C#Cc2ccc(CN3CCOCC3)cc2)cc1")
"2 to 16 µg/mL"
>>> result("CC(C)(O)[C@H](NC(=O)c1ccc(C#CC#Cc2ccc(CN3CCOCC3)cc2)cc1)C(=O)NO")
"< 2 µg/mL"
>>> result("C[C@@H](N)[C@H](NC(=O)c1ccc(C#C/C=C/c2ccc(CN3CCOCC3)cc2)cc1)C(=O)NO")
"< 2 µg/mL"
>>> result("C[C@@H](O)[C@H](NC(=O)c1ccc(C#Cc2cccc(OC(F)(F)F)c2)cc1)C(=O)NO")
"< 2 µg/mL"
>>> result("CN(C)CC(=O)NC[C@H](NC(=O)c1ccc(/C=C/C#Cc2ccc(CN3CCOCC3)cc2)cc1)C(=O)NO")
"2 to 16 µg/mL"
>>> result("COc1ccc(C#CC#Cc2ccc(C(=O)N[C@H](C(=O)NO)[C@@H](C)N)cc2)cc1")
"< 2 µg/mL"
>>> result("C[C@@H](O)[C@H](NC(=O)c1ccc(C#CC#Cc2ccc(CNC3CC3)cc2)cc1)C(=O)NO")
"< 2 µg/mL"
>>> result("CC(C)CCC#CC#Cc1ccc(C(=O)N[C@H](C(=O)NO)C(C)(C)O)cc1")
"< 2 µg/mL"
>>> result("C[C@@H](N)[C@H](NC(=O)c1ccc(/C=C/C#Cc2ccccc2Cl)cc1)C(=O)NO")
"< 2 µg/mL"
